What follows is a record of pIC50 for α7 nAChR (Rattus norvegicus, UniProt Q05941).
Quick note: pIC50 values are minus log10 of concentrations in mol/L.

molecule	pIC50
C(#Cc1cc(C#CCCC[n+]2cccc(-c3ccccc3)c2)c(C#CCCC[n+]2cccc(-c3ccccc3)c2)cc1C#CCCC[n+]1cccc(-c2ccccc2)c1)CCC[n+]1cccc(-c2ccccc2)c1.[Br-].[Br-].[Br-].[Br-] [Compound 11e]	8.06
c1ccc2c[n+](CCCCCc3cc(CCCCC[n+]4ccc5ccccc5c4)cc(CCCCC[n+]4ccc5ccccc5c4)c3)ccc2c1 [Compound 10d]	6.77
[Br-].[Br-].[Br-].c1ccc2c(c1)ccc[n+]2CCCCCc1cc(CCCCC[n+]2cccc3ccccc32)cc(CCCCC[n+]2cccc3ccccc32)c1 [Compound 10c]	5.82
Cc1cc[n+](CCCc2ccc(-c3ccc(CCC[n+]4ccc(C)c(C)c4)cc3)cc2)cc1C.[Br-].[Br-]	5.22

// fetch pIC50 for c1ccc(-c2ccc[n+](CCCCCc3cc(CCCCC[n+]4cccc(-c5ccccc5)c4)cc(CCCCC[n+]4cccc(-c5ccccc5)c4)c3)c2)cc1 [Compound 10e] ; system: α7 nAChR (Rattus norvegicus, UniProt Q05941)
Sequence (Q05941 23-502): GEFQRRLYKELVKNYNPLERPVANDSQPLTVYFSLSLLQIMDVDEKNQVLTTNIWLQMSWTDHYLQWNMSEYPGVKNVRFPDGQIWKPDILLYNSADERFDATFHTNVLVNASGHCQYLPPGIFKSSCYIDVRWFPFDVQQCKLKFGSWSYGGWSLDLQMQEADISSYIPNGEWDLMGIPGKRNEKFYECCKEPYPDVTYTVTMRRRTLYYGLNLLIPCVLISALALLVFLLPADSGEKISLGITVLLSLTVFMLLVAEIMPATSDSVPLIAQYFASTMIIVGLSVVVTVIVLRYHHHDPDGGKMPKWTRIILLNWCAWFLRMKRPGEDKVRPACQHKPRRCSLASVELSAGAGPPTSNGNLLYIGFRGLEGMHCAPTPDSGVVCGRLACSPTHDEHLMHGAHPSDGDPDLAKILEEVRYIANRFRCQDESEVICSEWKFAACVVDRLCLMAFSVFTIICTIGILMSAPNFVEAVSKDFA
7.04

Write down the reported pIC50 (system: α7 nAChR (Rattus norvegicus, UniProt Q05941)) of "C(#Cc1cc(C#CCCC[n+]2cccc(-c3ccccc3)c2)cc(C#CCCC[n+]2cccc(-c3ccccc3)c2)c1)CCC[n+]1cccc(-c2ccccc2)c1"
6.73
